meta.source: paper PMC7156458

Target System: Aβ42 (Homo sapiens)
Sequence (P05067 672-713): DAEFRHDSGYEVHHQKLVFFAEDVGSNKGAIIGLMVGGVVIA
Protocol Description: Th-T (thioflavin-T) assay of Aβ42 aggregation
Type: biochemical
Measurement Setup: reading M109; compound at 20 (head suffix _20)
Catalogue of Th-T fluorescence, mean of three wells (Fig. 7a) values
Simply state the number, no unit and no words.

Example entries and their recorded answers appear below.
| Molecule | Value Measured |
| --- | --- |
| C=C1CC[C@@H]2[C@](C)(CC[C@H]3O[C@H](C=C(C)C)C[C@@]23C)[C@@H]1Cc1c(OC)oc(CO)c(C(=O)OC)c1=O | 0.9416 |
| C=C1CCC2C(C)(CCC=C(C)C)C(O)CCC2(C)C1Cc1c(OC)oc(CO)c(C(=O)OC)c1=O (centres unmarked) | 1.038 |
| C=C1CC[C@@H]2[C@](C)(CC[C@H]3O[C@H](C=C(C)C)C[C@@]23C)[C@@H]1Cc1c(OC)oc(CO)c(C)c1=O | 3.217 |
| C=C1CCC2C(C)(CCC=C(C)C)C(O)CCC2(C)C1Cc1c(OC)oc(C)c(C(=O)OC)c1=O (centres unmarked) | 1.668 |

Supply measured Th-T fluorescence, mean of three wells (Fig. 7a) of C=C1CCC2C(C)(CCC=C(C)C)C(O)CCC2(C)C1Cc1c(OC)oc(CO)c(C)c1=O (centres unmarked) in your reply.
2.112
